# EXPERIMENT: Influence of Lentinus edodes on the zootechnic performance of poultry (feeding trial)
# Format: in vivo, chickens
# APPLIED_CONDITIONS: feed conversion ratio, chickens, end of trial; Lentinus edodes at 0.5% of feed where present
Entries annotated with measured FCR
Number, no unit, nothing else.

Field: example entries. Status: answers known.
O=CO [control + formic acid, formic acid] : 1.55
OP(O)O [control + phophorous acid, phophorous acid] : 1.56
CC[C@@H](C(=O)[C@@H](C)[C@@H](O)[C@H](C)[C@@H]1O[C@@H]([C@@H](CC)C(=O)O)CC[C@@H]1C)[C@H]1O[C@]2(C=C[C@@H](O)[C@]3(CC[C@@](C)([C@H]4CC[C@](O)(CC)[C@H](C)O4)O3)O2)[C@H](C)C[C@@H]1C [control + Salinomycine, Salinomycine] : 1.60

query: Using the record for COC[C@H]1O[C@@H](OC2OC[C@@H]3O[C@]4(O[C@H]3[C@H]2OC(=O)C(C)C)O[C@H](C)[C@@](O)(C(C)=O)[C@@H]2OCO[C@H]24)[C@@H](OC)[C@@H](O)[C@@H]1O[C@@H]1O[C@H](C)[C@H](OC)[C@H](O[C@H]2C[C@@]3(C)OC4(C[C@@H](O)[C@H](O[C@H]5C[C@@H](O)[C@H](OC(=O)c6c(C)c(Cl)c(O)c(Cl)c6OC)[C@@H](C)O5)[C@@H](C)O4)O[C@@H]3[C@@H](C)O2)[C@H]1O (stereo partly shown) [control + Avilamycin, Avilamycin] , report its FCR.
result: 1.59

* * *

# Type: in vivo
# APPLIED_CONDITIONS: piglets 7-20 kg, whole trial
RECORDED_ENDPOINT: Mortality (%)
# value in %; strip the unit string

Field: example entries. Status: answers known.
OP(O)O [control + phophorous acid, phophorous acid] : 6.6
COC[C@H]1O[C@@H](OC2OC[C@@H]3O[C@]4(O[C@H]3[C@H]2OC(=O)C(C)C)O[C@H](C)[C@@](O)(C(C)=O)[C@@H]2OCO[C@H]24)[C@@H](OC)[C@@H](O)[C@@H]1O[C@@H]1O[C@H](C)[C@H](OC)[C@H](O[C@H]2C[C@@]3(C)OC4(C[C@@H](O)[C@H](O[C@H]5C[C@@H](O)[C@H](OC(=O)c6c(C)c(Cl)c(O)c(Cl)c6OC)[C@@H](C)O5)[C@@H](C)O4)O[C@@H]3[C@@H](C)O2)[C@H]1O (stereo partly shown) [control + Avilamycin, Avilamycin] : 3.3
O=CO [control + formic acid, formic acid] : 10.0

Kindly consider the entry below.
query: Using the record for CC[C@@H](C(=O)[C@@H](C)[C@@H](O)[C@H](C)[C@@H]1O[C@@H]([C@@H](CC)C(=O)O)CC[C@@H]1C)[C@H]1O[C@]2(C=C[C@@H](O)[C@]3(CC[C@@](C)([C@H]4CC[C@](O)(CC)[C@H](C)O4)O3)O2)[C@H](C)C[C@@H]1C [control + Salinomycine, Salinomycine] , report its Mortality.
result: 6.6
